Here, each record is paired with measured viability, T/C data.
Test system: 883617-216-R-J1-PDC complex spheroid viability
assay info: Anticancer human tumor 883617-216-R-J1-PDC patient-derived bladder carcinoma cell line growth inhibition
run conditions: second compound 1 µM; first compound 0.00316 µM; stronger effect = lower value

>>> observed_value("CC[C@@]1(O)C(=O)OCc2c1cc1n(c2=O)Cc2cc3c(CN(C)C)c(O)ccc3nc2-1 + NC1CCC(NC2CC2c2ccccc2)CC1")
"57.4%"

## Input Can you share its viability, T/C? I mean this compound: Cn1ncnc1C1c2n[nH]c(=O)c3cc(F)cc(c23)NC1c1ccc(F)cc1 (configuration not stated) + NC1CCC(NC2CC2c2ccccc2)CC1
## Output 99.2%

----------
Here, each record is paired with measured viability, T/C data.
Tested on: 883617-216-R-J1-PDC complex spheroid viability
assay info: Anticancer human tumor 883617-216-R-J1-PDC cell line growth inhibition;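 further: exposure lasted seven days after three days of spheroid growth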;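 on viability, T/C: 100% = DMSO vehicle control luminescence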
run conditions: second compound 0.1 µM; first compound 0.0316 µM; stronger effect = lower value

>>> observed_value("CC(C)CC(NC(=O)CNC(=O)c1cc(Cl)ccc1Cl)B1OC(=O)CC(CC(=O)O)(C(=O)O)O1 (centres undefined) + NC1CCC(NC2CC2c2ccccc2)CC1")
"11.9%"
>>> observed_value("O=C(C=Cn1cnc(-c2cc(C(F)(F)F)cc(C(F)(F)F)c2)n1)NNc1cnccn1 + NC1CC1c1ccc(-c2cccc(O)c2)cc1")
"23.8%"
>>> observed_value("Nc1ncn(C2CC(O)C(CO)O2)c(=O)n1 (centres undefined) + NC1CCC(NC2CC2c2ccccc2)CC1")
"94.7%"

Now take the following molecule into account.
## Input Can you share its viability, T/C? I mean this molecule: Nc1ncn(C2CC(O)C(CO)O2)c(=O)n1 (centres undefined) + NC1CC1c1ccc(-c2cccc(O)c2)cc1
## Output 87.3%

----------
Here, each record is paired with measured viability, T/C data.
Test system: 883617-216-R-J1-PDC complex spheroid viability
assay info: Anticancer human tumor 883617-216-R-J1-PDC cell line growth inhibition;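 further: exposure lasted seven days after three days of spheroid growth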;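 on viability, T/C: 100% = DMSO vehicle control luminescence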
run conditions: second compound 0.1 µM; first compound 10 µM; stronger effect = lower value
# value in %; strip the unit string

Some solved cases for reference:
>>> observed_value("O=C(c1cc(Cc2n[nH]c(=O)c3ccccc23)ccc1F)N1CCN(C(=O)C2CC2)CC1 + NC1CCC(NC2CC2c2ccccc2)CC1")
44.4
>>> observed_value("CC1COCCN1c1cc(C2(S(C)(=N)=O)CC2)nc(-c2ccnc3[nH]ccc23)n1 (stereo not given) + NC1CC1c1ccc(-c2cccc(O)c2)cc1")
27.7

## Input Recorded viability, T/C for CC(C)c1c(-c2ccccc2)nc2c(C#N)c[nH]n2c1=O + NC1CC1c1ccc(-c2cccc(O)c2)cc1 with 883617-216-R-J1-PDC complex spheroid viability, please?
## Output 96

## Input Recorded viability, T/C for COc1ccc([C@@H](O)c2cc(-c3ncnc4cc(N5CCOCC5)ccc34)c(F)cc2Cl)nn1 + NC1CCC(NC2CC2c2ccccc2)CC1 with 883617-216-R-J1-PDC complex spheroid viability, please?
## Output 20.7

## Input Recorded viability, T/C for COc1ccc([C@@H](O)c2cc(-c3ncnc4cc(N5CCOCC5)ccc34)c(F)cc2Cl)nn1 + NC1CC1c1ccc(-c2cccc(O)c2)cc1 with 883617-216-R-J1-PDC complex spheroid viability, please?
## Output 15.1

## Input Recorded viability, T/C for CC1(C)CCC(CN2CCN(c3ccc(C(=O)NS(=O)(=O)c4ccc(NCC5CCOCC5)c([N+](=O)[O-])c4)c(Oc4cnc5[nH]ccc5c4)c3)CC2)=C(c2ccc(Cl)cc2)C1 + NC1CCC(NC2CC2c2ccccc2)CC1 with 883617-216-R-J1-PDC complex spheroid viability, please?
## Output 28.3

## Input Recorded viability, T/C for CC1COCCN1c1cc(C2(S(C)(=N)=O)CC2)nc(-c2ccnc3[nH]ccc23)n1 (stereo not given) + NC1CCC(NC2CC2c2ccccc2)CC1 with 883617-216-R-J1-PDC complex spheroid viability, please?
## Output 36.9

## Input Recorded viability, T/C for CC1(C)CCC(CN2CCN(c3ccc(C(=O)NS(=O)(=O)c4ccc(NCC5CCOCC5)c([N+](=O)[O-])c4)c(Oc4cnc5[nH]ccc5c4)c3)CC2)=C(c2ccc(Cl)cc2)C1 + NC1CC1c1ccc(-c2cccc(O)c2)cc1 with 883617-216-R-J1-PDC complex spheroid viability, please?
## Output 26.2

## Input Recorded viability, T/C for CC(C)c1c(-c2ccccc2)nc2c(C#N)c[nH]n2c1=O + NC1CCC(NC2CC2c2ccccc2)CC1 with 883617-216-R-J1-PDC complex spheroid viability, please?
## Output 93.8

## Input Recorded viability, T/C for O=C(c1cc(Cc2n[nH]c(=O)c3ccccc23)ccc1F)N1CCN(C(=O)C2CC2)CC1 + NC1CC1c1ccc(-c2cccc(O)c2)cc1 with 883617-216-R-J1-PDC complex spheroid viability, please?
## Output 36.4

----------
Tested on: 883617-216-R-J1-PDC complex spheroid viability
assay info: Anticancer human tumor 883617-216-R-J1-PDC cell line growth inhibition;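 further: exposure lasted seven days after three days of spheroid growth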
run conditions: curve of first compound; second compound 3.16 µM
Here, each record is paired with measured pIC50 data.
Lab note — pIC50 values are minus log10 of concentrations in M.

>>> observed_value("CC[C@@]1(O)C(=O)OCc2c1cc1n(c2=O)Cc2cc3c(CN(C)C)c(O)ccc3nc2-1 + NC1CC1c1ccc(-c2cccc(O)c2)cc1")
8.85
>>> observed_value("CC1COCCN1c1cc(-c2ccnn2C)c2ccnc(-c3ccn[nH]3)c2n1 (centres undefined) + NC1CCC(NC2CC2c2ccccc2)CC1")
7.35

Now take the following molecule into account.
## Input Can you share its pIC50? I mean this molecule: COc1cc(Nc2ncc3c(n2)-c2ccc(Cl)cc2C(c2c(F)cccc2OC)=NC3)ccc1C(=O)O + NC1CC1c1ccc(-c2cccc(O)c2)cc1
## Output 7.73

----------
Tested on: 883617-216-R-J1-PDC complex spheroid viability
assay info: Anticancer human tumor 883617-216-R-J1-PDC cell line growth inhibition;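 further: exposure lasted seven days after three days of spheroid growth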;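 on viability, T/C: 100% = DMSO vehicle control luminescence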
run conditions: second compound 10 µM; first compound 0.00316 µM; stronger effect = lower value
With a cut-off of 70%, any viability, T/C strictly below it is called TRUE; any viability, T/C meeting it or above is called FALSE.

Here are 8 compounds together with their reported answers.
>>> label_class("COc1cc(Nc2ncc3c(n2)-c2ccc(Cl)cc2C(c2c(F)cccc2OC)=NC3)ccc1C(=O)O + NC1CC1c1ccc(-c2cccc(O)c2)cc1")
"FALSE"
>>> label_class("CC1COCCN1c1cc(-c2ccnn2C)c2ccnc(-c3ccn[nH]3)c2n1 (stereo unspecified) + NC1CCC(NC2CC2c2ccccc2)CC1")
"FALSE"
>>> label_class("Nc1ncn(C2CC(O)C(CO)O2)c(=O)n1 (stereo unspecified) + NC1CCC(NC2CC2c2ccccc2)CC1")
"FALSE"
>>> label_class("CC[C@@]1(O)C(=O)OCc2c1cc1n(c2=O)Cc2cc3c(CN(C)C)c(O)ccc3nc2-1 + NC1CCC(NC2CC2c2ccccc2)CC1")
"FALSE"
>>> label_class("CC(C)CC(NC(=O)C(Cc1ccccc1)NC(=O)c1cnccn1)B(O)O (stereo unspecified) + NC1CCC(NC2CC2c2ccccc2)CC1")
"TRUE"
>>> label_class("Cn1ncnc1C1c2n[nH]c(=O)c3cc(F)cc(c23)NC1c1ccc(F)cc1 (stereo unspecified) + NC1CCC(NC2CC2c2ccccc2)CC1")
"FALSE"
>>> label_class("O=C(C=Cn1cnc(-c2cc(C(F)(F)F)cc(C(F)(F)F)c2)n1)NNc1cnccn1 + NC1CCC(NC2CC2c2ccccc2)CC1")
"FALSE"
>>> label_class("CC(C)CC(NC(=O)CNC(=O)c1cc(Cl)ccc1Cl)B1OC(=O)CC(CC(=O)O)(C(=O)O)O1 (stereo unspecified) + NC1CC1c1ccc(-c2cccc(O)c2)cc1")
"TRUE"

## Input Check if viability, T/C falls below 70% for CC(C)CC(NC(=O)C(Cc1ccccc1)NC(=O)c1cnccn1)B(O)O (stereo unspecified) + NC1CC1c1ccc(-c2cccc(O)c2)cc1 .
## Output TRUE

## Input Check if viability, T/C falls below 70% for Nc1ncn(C2CC(O)C(CO)O2)c(=O)n1 (stereo unspecified) + NC1CC1c1ccc(-c2cccc(O)c2)cc1 .
## Output FALSE

## Input Check if viability, T/C falls below 70% for O=C(C=Cn1cnc(-c2cc(C(F)(F)F)cc(C(F)(F)F)c2)n1)NNc1cnccn1 + NC1CC1c1ccc(-c2cccc(O)c2)cc1 .
## Output TRUE

## Input Check if viability, T/C falls below 70% for CC1COCCN1c1cc(-c2ccnn2C)c2ccnc(-c3ccn[nH]3)c2n1 (stereo unspecified) + NC1CC1c1ccc(-c2cccc(O)c2)cc1 .
## Output TRUE

## Input Check if viability, T/C falls below 70% for CC[C@@]1(O)C(=O)OCc2c1cc1n(c2=O)Cc2cc3c(CN(C)C)c(O)ccc3nc2-1 + NC1CC1c1ccc(-c2cccc(O)c2)cc1 .
## Output TRUE
